- study target: Bromodomain-containing protein 4 (Homo sapiens, UniProt O60885)
- protocol notes: Binding affinity to BRD4 BD2 (unknown origin) assessed as dissociation constant by SPR assay
measured metric: Kd (nM)
# number only, unit nM dropped from output

# input Query: Kd; subject: `CC(=O)N[C@H](C(=O)N1C[C@H](O)C[C@H]1C(=O)NCc1ccc(-c2scnc2C)cc1)C(C)(C)SCCCCCCNC(=O)C[C@@H]1N=C(c2ccc(Cl)cc2)c2c(sc(C)c2C)-n2c(C)nnc21`
# output 4.4

---

- System: MDA-MB-231
- protocol notes: Antiproliferative activity against human MDA-MB-231 cells assessed as reduction in cell viability incubated for 72 hrs by MTT assay
- Format: functional, cell-based
- condition notes: MDA-MB-231, 72 h
measured metric: pIC50
Reminder that pIC50 means the negative base-10 logarithm of the concentration expressed in mol/L.

# input Query: pIC50; subject: `Cc1sc2c(c1C)C(c1ccc(Cl)cc1)=N[C@@H](CC(=O)NCCCCOc1ccc(Oc3ccc(N(Cc4ccccc4)C(=O)CCl)cc3)cc1)c1nnc(C)n1-2`
# output 6.27
